- TARGET: JAK3 (catalytic domain, His-tag) (Homo sapiens, UniProt P52333)
- Construct: All four purified enzymes contain only the catalytic domain; His (N); purchased Carna Biosciences, Inc; host or cells: baculovirus expression system
- Sequence (P52333 822-1111 limits assumed): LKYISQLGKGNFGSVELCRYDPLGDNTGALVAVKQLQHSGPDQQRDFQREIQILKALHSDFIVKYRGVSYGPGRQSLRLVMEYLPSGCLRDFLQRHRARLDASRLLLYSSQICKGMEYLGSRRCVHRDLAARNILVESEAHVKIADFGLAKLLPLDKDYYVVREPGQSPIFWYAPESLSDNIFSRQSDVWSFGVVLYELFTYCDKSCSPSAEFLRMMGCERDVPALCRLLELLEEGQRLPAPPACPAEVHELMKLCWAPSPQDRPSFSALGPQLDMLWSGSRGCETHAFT
- ASSAY_PROTOCOL: JAK kinase assay (HTRF, phosphorylation of TK substrate-biotin), JAK3
- Assay type: biochemical
- REPORTED_CONDITIONS: ATP at Km (2 μM); read-out: JAK3 kinase inhibitory activity (EC50 indicator)
pEC50: −log10 of the molar value.
MEASUREMENT_TYPE: pEC50

# value lookup — system JAK3 (catalytic domain, His-tag) (Homo sapiens, UniProt P52333), readout pEC50, item `N#Cc1ccc(CC(=O)N2CCN(c3nc(NC(=O)c4ccccc4)nc4[nH]ccc34)CC23CC3)cc1`
< 6.30

# value lookup — system JAK3 (catalytic domain, His-tag) (Homo sapiens, UniProt P52333), readout pEC50, item `N#CC1(C(=O)N2CCN(c3ncnc4[nH]ccc34)CC23CC3)CC1`
> 7.00

# value lookup — system JAK3 (catalytic domain, His-tag) (Homo sapiens, UniProt P52333), readout pEC50, item `NS(=O)(=O)CCC(=O)N1CCN(c2ncnc3[nH]ccc23)CC12CC2`
> 7.00

Shifting focus to the molecule that follows.
# value lookup — system JAK3 (catalytic domain, His-tag) (Homo sapiens, UniProt P52333), readout pEC50, item O=C(C1CCOC1)N1C2CCC1CN(c1ncnc3[nH]ccc13)C2 (stereo not shown)
< 6.30

====

- TARGET: JAK1 (aa 850-1154, catalytic domain, GST-tag) (Homo sapiens, UniProt P23458)
- Construct: JAK1 (aa 850-1154) and TYK2 (aa 871-1187) are expressed with an N-terminally fused GST-tag; GST (N); purchased Carna Biosciences, Inc; host or cells: baculovirus expression system
- Sequence (P23458 850-1154): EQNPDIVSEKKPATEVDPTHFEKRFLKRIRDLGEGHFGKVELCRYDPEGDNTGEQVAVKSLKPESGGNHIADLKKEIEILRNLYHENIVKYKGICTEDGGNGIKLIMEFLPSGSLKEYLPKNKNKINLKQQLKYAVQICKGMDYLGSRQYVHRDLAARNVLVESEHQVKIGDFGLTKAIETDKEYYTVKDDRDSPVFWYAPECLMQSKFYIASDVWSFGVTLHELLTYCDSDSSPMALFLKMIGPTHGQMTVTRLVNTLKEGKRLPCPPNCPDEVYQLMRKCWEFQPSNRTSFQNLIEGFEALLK
- ASSAY_PROTOCOL: JAK kinase assay (HTRF, phosphorylation of TK substrate-biotin), JAK1
- Format: biochemical
- REPORTED_CONDITIONS: HTRF assay, ATP at Km (7 μM); read-out: JAK1 kinase inhibitory activity (EC50 indicator)
Listed here are molecules together with their documented EC50.

Answered cases to consult:
GET /values?readout=EC50&item= O=C(c1cc2cc(F)ccc2[nH]1)N1CCN(c2ncnc3[nH]ccc23)CC12CC2 [Example 361]
< 100 nM

GET /values?readout=EC50&item= CS(=O)(=O)c1ccc(C(=O)N2CCN(c3ncnc4[nH]ccc34)CC23CC3)cc1 [Example 364]
< 100 nM

GET /values?readout=EC50&item= O=C(c1cnccn1)N1[C@@H]2CC[C@H]1CN(c1ncnc3[nH]ccc13)C2 [Example 421]
< 100 nM

GET /values?readout=EC50&item= N#Cc1ccc(C(=O)N2CCN(c3ncnc4[nH]ccc34)CC23CC3)cc1F [Example 219]
< 100 nM

GET /values?readout=EC50&item= Cc1ccc2sc(C(=O)N3CCN(c4ccnc5[nH]ccc45)CC34CC4)cc2c1 [Example 234]
100 to 500 nM

Further cases:
GET /values?readout=EC50&item= NC(=O)c1ccc(C(=O)N2[C@@H]3CC[C@@H]2CN(c2ncnc4[nH]ccc24)C3)cc1 [Example 358]
< 100 nM

GET /values?readout=EC50&item= O=C(c1ccc(-c2ccccc2)s1)N1CCN(c2ncnc3[nH]ccc23)CC12CC2 [Example 215]
< 100 nM

GET /values?readout=EC50&item= O=C(c1ccccn1)N1[C@@H]2CC[C@@H]1CN(c1ncnc3[nH]ccc13)C2 [Example 241]
< 100 nM

Recorded values, source patent US9346809B2.
